Exercise: for every item that follows, state its recorded pIC50.
System: HepG-2 human hepatocellular carcinoma cells
protocol text: MTT assay, proliferation of HepG-2 cells
Type: cell-based
cond: Homo sapiens, HepG2, 72 h incubation, mean of three independent experiments
Give bare numbers, as −log10 of the molar value.

compound	observation type	obs value
CC(=O)OC(C)(C)/C=C/C(=O)[C@](C)(O)C1[C@H](OC(=O)CCC(=O)OCCCCCCCCCCCOc2no[n+]([O-])c2S(=O)(=O)c2ccccc2)C[C@@]2(C)C3CC=C4C(CC(O)C(=O)C4(C)C)[C@]3(C)C(=O)C[C@]12C (stereo partly drawn) [Compound 10j]	pIC50	4.99
CC(=O)OC(C)(C)/C=C/C(=O)[C@](C)(O)C1[C@H](OC(=O)c2ccc(C)cc2)C[C@@]2(C)C3CC=C4C(C[C@H](O)C(=O)C4(C)C)[C@]3(C)C(=O)C[C@]12C (stereo partly drawn)	pIC50	5.02

### Prompt Item under review: CC(=O)OC(C)(C)/C=C/C(=O)[C@](C)(O)C1[C@H](OC(=O)CCCCNC(=O)OC(C)(C)C)C[C@@]2(C)C3CC=C4C(C[C@H](O)C(=O)C4(C)C)[C@]3(C)C(=O)C[C@]12C (stereo partly drawn) . Reported pIC50?
### Response 5.31
